Experimental system: catalytic domain 2 (CD2) of HDAC6 (Homo sapiens (Human), UniProt Q9UBN7)
Sequence (Q9UBN7 482-800): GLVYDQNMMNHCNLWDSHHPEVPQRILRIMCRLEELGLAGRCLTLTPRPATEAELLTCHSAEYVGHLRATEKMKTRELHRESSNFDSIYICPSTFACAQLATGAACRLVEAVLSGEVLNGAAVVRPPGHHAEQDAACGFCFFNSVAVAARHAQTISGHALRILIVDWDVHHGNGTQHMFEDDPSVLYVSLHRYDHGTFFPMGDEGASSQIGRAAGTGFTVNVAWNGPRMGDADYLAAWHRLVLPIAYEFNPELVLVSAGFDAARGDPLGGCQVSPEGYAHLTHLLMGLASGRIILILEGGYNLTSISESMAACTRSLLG
Procedure details: Cellular target engagement assay - NanoBRET
Assay setup: NanoLuc-HDAC6(CD2) in HEK293T cells, 2 hours, read-out: IC50 (HDAC6(CD2) interaction)
pIC50: −log10 of the molar value.
The following compounds are shown together with reported pIC50 values.

A selection of reference data follows.
INSERT INTO assay_data (compound, assay_readout, result) VALUES
  ('O=C(CO)NCc1ccc(C(=O)CSc2nc(C(F)(F)F)nc3ccc(N4CCOCC4)cc23)s1', 'pIC50', '6.30 to 7.00'),
  ('O=C(CO)NCc1ccc(C(=O)CSc2nccc3ncccc23)s1', 'pIC50', '6.30 to 7.00');

Record request: pIC50 value, item "O=C(CSc1nc(C(F)(F)F)nc2ncccc12)c1ccc(CNS(=O)(=O)C2CC2)s1"
≥ 7.00

Query "CC(=O)NCc1ccc(C(=O)CSc2ncnc3c2cnn3C)s1" next
6.00 to 6.30

Query "COCC(=O)NCc1ccc(C(=O)CSc2ncnc3c2cnn3C)s1" next
5.00 to 6.00

Query "O=C(CO)NCc1ccc(C(=O)CSc2nccc3cccnc23)s1" next
6.30 to 7.00

Query "CCc1nc(SCC(=O)c2ccc(CNC(=O)CO)s2)c2ccccc2n1" next
≥ 7.00

Query "O=C(CO)NCc1ccc(C(=O)CSc2nc(C(F)(F)F)nc3c2cnn3C2CC2)s1" next
≥ 7.00

Query "COc1cc(F)c2nc(C)nc(SCC(=O)c3ccc(CNC(=O)CO)s3)c2c1" next
6.30 to 7.00

Query "COc1cccc2oc(SCC(=O)c3ccc(CNC(=O)CO)s3)nc12" next
5.00 to 6.00

Query "COc1ccc2nc(C)nc(SCC(=O)c3ccc(CNC(=O)C4(O)CC4)s3)c2c1" next
6.30 to 7.00

Query "Cc1nc(SCC(=O)c2ccc(CNC(=O)CO)s2)c2cc(C3CC3)ccc2n1" next
≥ 7.00

Query "CC(C)(C)C(=O)NCc1ccc(C(=O)CSc2nc(C(F)(F)F)nc3ccccc23)s1" next
≥ 7.00

Query "COc1cnc2nc(C)nc(SCC(=O)c3ccc(CN4CCOCC4=O)s3)c2c1" next
6.30 to 7.00

Query Cn1ncc2c(SCC(=O)c3ccc(C4CCN(C(=O)CO)C4)s3)ncnc21 (stereo not shown) next
5.00 to 6.00

Query O=C(CSc1nc(C(F)(F)F)nc2nn(C3CC3)cc12)c1ccc(CNC(=O)C2CC2(F)F)s1 (stereo not shown) next
6.30 to 7.00

Query "O=C(CSc1nc(C(F)(F)F)nc2ccc(N3CCOCC3)cc12)c1ccc(CNC(=O)C2(O)CC2)s1" next
6.30 to 7.00

Query "O=C(CO)NCc1ccc(C(=O)CSc2nccn3ccnc23)s1" next
5.00 to 6.00

Query "COc1ccc2nc(C)nc(SCC(=O)c3ccc(CN4CCOCC4=O)s3)c2c1" next
6.30 to 7.00

Query "O=C(CO)NCc1ccc(C(=O)CSc2nc3ccc(C(F)(F)F)nc3o2)s1" next
≥ 7.00

Query "Cn1cc2c(SCC(=O)c3ccc(CNC(=O)CO)s3)nc(C(F)(F)F)nc2n1" next
≥ 7.00

Query "COc1cnc2nc(C(F)F)nc(SCC(=O)c3ccc(CNC(=O)CO)s3)c2c1" next
≥ 7.00

Source of measurements: patent US20250051319A1
